Source listed as ChEMBL document CHEMBL1201862.

- study system: Rac GTPase-activating protein 1 (Homo sapiens)
- Sequence (Q9H0H5 whole entry): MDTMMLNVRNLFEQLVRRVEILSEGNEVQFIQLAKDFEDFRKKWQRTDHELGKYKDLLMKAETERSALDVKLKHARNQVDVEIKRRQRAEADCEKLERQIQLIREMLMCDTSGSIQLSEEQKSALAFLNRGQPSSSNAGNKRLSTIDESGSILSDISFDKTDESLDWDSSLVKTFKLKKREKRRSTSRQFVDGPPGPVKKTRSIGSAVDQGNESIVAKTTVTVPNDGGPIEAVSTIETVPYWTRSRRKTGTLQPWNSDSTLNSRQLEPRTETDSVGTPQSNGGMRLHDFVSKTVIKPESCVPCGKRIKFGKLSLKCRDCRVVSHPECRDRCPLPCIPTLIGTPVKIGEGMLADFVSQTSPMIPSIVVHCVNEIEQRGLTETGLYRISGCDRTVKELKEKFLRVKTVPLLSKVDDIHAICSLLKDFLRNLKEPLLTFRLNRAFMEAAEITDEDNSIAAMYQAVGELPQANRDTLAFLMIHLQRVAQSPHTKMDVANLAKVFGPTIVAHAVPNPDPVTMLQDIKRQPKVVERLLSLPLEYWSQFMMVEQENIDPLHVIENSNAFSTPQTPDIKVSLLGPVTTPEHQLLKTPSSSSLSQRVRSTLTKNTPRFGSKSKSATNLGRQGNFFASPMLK
- run description: MgcRacGAP GTPase-activating activity inhibitors, confirmation, biochemical, ADP Hunter fluorescence, primary and confirmatory (AID 624330)
- Assay type: functional
The source made the active and inactive calls. How the calls were made is not given here.
List of IC50 values.

compound	IC50
Cc1ccc[n+](CC(=O)Nc2ccc(N(C)C)cc2)c1	113 µM (active)
CN(Cc1ccccc1)C(=O)C1CCCN(Cc2ccc(Cl)cc2)C1 (stereo not drawn)	161 µM (active)
COc1cccc2c1C(=N)c1c(O)c3c(c(O)c1C2=O)C[C@@](O)(C(C)=O)C[C@@H]3O[C@H]1C[C@H](N)[C@H](O)[C@H](C)O1	50.8 µM (active)
Oc1ccccc1/C=N/C1=NN(c2cccc(C(F)(F)F)c2)CC1	16.9 µM (active)
COc1cc(/C=N/NC(=O)C(C)n2nnc3ccccc32)ccc1O (stereo not drawn)	25.5 µM (active)
Oc1ccc(N/C(S)=N/c2ccccc2)cc1	32.9 µM (active)
CSc1ncnc2c1ncn2CCCNc1ccc(C)c(C)c1	207 µM (active)
CCN(CC)S(=O)(=O)c1ccc(N/N=C/c2ccc(O)cc2O)nc1	24.3 µM (active)
C=CCNC(=S)N1CCN(Cc2ccc3c(c2)OCO3)CC1	158 µM (active)
COc1ccc(CNc2ncc(-c3ccc(F)cc3)n2C)cc1OC	56.8 µM (active)
CCCCCC(=O)Nc1cc(S(=O)(=O)O)cc2cc(S(=O)(=O)O)cc(O)c12	31.7 µM (active)
COc1nc(Nc2ccc(O)cc2)nc(OC(C(F)(F)F)C(F)(F)F)n1	35.1 µM (active)
CN(C)c1ccc(NC2=C(Cl)C(=O)c3ccccc3C2=O)cc1	122 µM (active)
COc1cc(N)ccc1NC(=O)c1cccs1	106 µM (active)
COc1cc(OC)c(CN2CCCN(C)CC2)cc1Br	107 µM (active)
OC1=C(/C=N/c2ccc(O)cc2)CCCC1	12.5 µM (active)
Cc1ccc(NC(=O)CNCCCN2CCOCC2)cc1S(=O)(=O)N1CCCCC1	76.5 µM (active)
CN(C)c1ccc(NS(=O)(=O)c2ccc(Cl)cc2)cc1	30.6 µM (active)

###

Each record here notes measured EC50.
- study system: UniProt:Q9QUQ5
- Sequence (Q9QUQ5 whole entry): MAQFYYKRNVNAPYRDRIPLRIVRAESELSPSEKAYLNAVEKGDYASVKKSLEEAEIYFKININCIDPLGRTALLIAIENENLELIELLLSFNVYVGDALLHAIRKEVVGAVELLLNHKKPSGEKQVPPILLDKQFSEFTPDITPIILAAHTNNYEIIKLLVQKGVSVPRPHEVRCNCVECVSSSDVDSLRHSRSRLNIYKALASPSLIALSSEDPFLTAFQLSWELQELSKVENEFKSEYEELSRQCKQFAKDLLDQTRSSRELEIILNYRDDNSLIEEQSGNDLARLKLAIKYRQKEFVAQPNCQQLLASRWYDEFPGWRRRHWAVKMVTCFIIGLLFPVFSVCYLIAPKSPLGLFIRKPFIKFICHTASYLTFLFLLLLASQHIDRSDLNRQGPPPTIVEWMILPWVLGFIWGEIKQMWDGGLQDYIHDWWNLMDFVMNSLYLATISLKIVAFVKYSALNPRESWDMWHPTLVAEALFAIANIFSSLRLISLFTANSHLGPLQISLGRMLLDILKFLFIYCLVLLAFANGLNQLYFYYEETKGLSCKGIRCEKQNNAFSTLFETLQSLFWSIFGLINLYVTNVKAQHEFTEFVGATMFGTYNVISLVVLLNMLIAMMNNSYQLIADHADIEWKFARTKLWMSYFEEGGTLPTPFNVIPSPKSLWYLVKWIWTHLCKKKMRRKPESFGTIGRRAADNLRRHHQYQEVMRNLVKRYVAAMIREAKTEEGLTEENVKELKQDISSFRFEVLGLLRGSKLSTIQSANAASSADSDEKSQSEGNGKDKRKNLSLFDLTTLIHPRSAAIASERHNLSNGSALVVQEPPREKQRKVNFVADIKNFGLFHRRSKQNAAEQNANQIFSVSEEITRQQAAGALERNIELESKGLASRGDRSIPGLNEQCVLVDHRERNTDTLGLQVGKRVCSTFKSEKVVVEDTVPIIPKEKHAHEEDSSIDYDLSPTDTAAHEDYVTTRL
- run description: mouse TRPC4 channel activators, dose response, cell-based, HEK293 TRPC4/mu-opioid, Fluo-4 calcium (AID 434937)
- Type: functional
The source made the active and inactive calls. How the calls were made is not given here.

compound	EC50
CCn1c(N2CCN(S(=O)(=O)CC)CC2)nc2ccccc21	2660 nM (active)
OCC1(CC2CCCCO2)CCN(Cc2ccccc2-c2ccco2)CC1 (centres undefined)	668 nM (active)
O=C(NCCNC1CCC(c2ccccc2)CC1)c1cccs1 (centres undefined)	335 nM (active)
OC(CNC1CCCc2ccccc21)COc1c(Cl)cccc1Cl (centres undefined)	5960 nM (active)
